Recorded measurements of DRD5 (Agonist) percent activity, one per entry
target: dopamine receptor DRD5 (Homo sapiens, UniProt P21918); experiment: PathHunter β-Arrestin GPCR agonist assay, DRD5; assay type: cell-based; design: concentration or dose not given beside the values; settings: agonist mode; dopamine as control
Sequence (P21918 whole entry): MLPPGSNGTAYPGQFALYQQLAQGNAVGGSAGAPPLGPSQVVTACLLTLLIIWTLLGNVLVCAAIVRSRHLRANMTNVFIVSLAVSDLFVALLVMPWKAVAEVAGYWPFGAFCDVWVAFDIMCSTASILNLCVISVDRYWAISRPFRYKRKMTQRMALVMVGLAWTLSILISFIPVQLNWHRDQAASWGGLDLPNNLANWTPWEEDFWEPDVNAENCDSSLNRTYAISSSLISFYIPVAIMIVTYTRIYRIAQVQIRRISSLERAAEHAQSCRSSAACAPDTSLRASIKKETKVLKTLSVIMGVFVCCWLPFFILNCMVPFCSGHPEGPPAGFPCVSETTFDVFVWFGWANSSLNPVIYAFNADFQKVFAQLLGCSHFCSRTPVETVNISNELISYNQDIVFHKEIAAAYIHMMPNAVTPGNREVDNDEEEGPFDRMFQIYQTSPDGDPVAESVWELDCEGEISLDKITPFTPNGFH
Field format: number, assumed %, no unit text.

{"Compound": "CCCCCc1cc2c(c(O)c1C(=O)O)C=CC(C)(CCC=C(C)C)O2 (stereo not drawn)", "Numeric value": 1}

`C=C(C)[C@@H]1CCC(C)=C[C@H]1c1c(O)cc(CCCCC)cc1O` tested on dopamine receptor DRD5 (Homo sapiens, UniProt P21918) gave DRD5 (Agonist) percent activity: 27

`CCCc1cc(O)c(C/C=C(\C)CCC=C(C)C)c(O)c1` tested on dopamine receptor DRD5 (Homo sapiens, UniProt P21918) gave DRD5 (Agonist) percent activity: 6

`C=C(C)[C@@H]1CCC(C)=C[C@H]1c1c(O)cc(C)cc1O` tested on dopamine receptor DRD5 (Homo sapiens, UniProt P21918) gave DRD5 (Agonist) percent activity: 0

`CCCCc1cc(O)c(CC=C(C)CCC=C(C)C)c(O)c1` tested on dopamine receptor DRD5 (Homo sapiens, UniProt P21918) gave DRD5 (Agonist) percent activity: 6

CCCCCc1cc(O)c2c(c1)OC1(C)CCC3C1C2C3(C)C (stereo not drawn) tested on dopamine receptor DRD5 (Homo sapiens, UniProt P21918) gave DRD5 (Agonist) percent activity: 37

###

molecular target: UniProt O43613; experiment: PathHunter β-Arrestin GPCR agonist assay, HCRTR1; assay type: cell-based; set-up: concentration or dose not given beside the values; conditions: agonist mode; Orexin A as control
Recorded measurements of HCRTR1 (Agonist) percent activity, one per entry
Field format: number, assumed %, no unit text.

{"Compound": "CCCCCc1cc(O)c(C/C=C(\\C)CCC=C(C)C)c(O)c1C(=O)O [CBGA, cannabigerolic acid]", "Display unit": "%", "HCRTR1 (Agonist) percent activity": 1}
{"Compound": "C=C(C)[C@@H]1CCC(C)=C[C@H]1c1c(O)cc(CCCCC)c(C(=O)O)c1O [CBDA, cannabidiolic acid]", "Display unit": "%", "HCRTR1 (Agonist) percent activity": 1}
{"Compound": "CCCCc1cc(O)c(C/C=C(\\C)CCC=C(C)C)c(O)c1C(=O)O [CBGA-C4, cannabigerolic acid butyl]", "Display unit": "%", "HCRTR1 (Agonist) percent activity": 3}
{"Compound": "C=C(C)[C@@H]1CCC(C)=C[C@H]1c1c(O)cc(CCC)c(C(=O)O)c1O [CBDVA, cannabidivarinic acid]", "Display unit": "%", "HCRTR1 (Agonist) percent activity": 0}
{"Compound": "CCCc1cc(O)c(C/C=C(\\C)CCC=C(C)C)c(O)c1 [CBGV, cannabigerivarin]", "Display unit": "%", "HCRTR1 (Agonist) percent activity": 4}

HCRTR1 (Agonist) percent activity reading for CCCCCc1cc2c(c(O)c1C(=O)O)C=CC(C)(CCC=C(C)C)O2 (stereo not shown) [CBCA, cannabichromenic acid] : 3

HCRTR1 (Agonist) percent activity reading for CCCCCc1cc2c(c(O)c1C(=O)O)C1C3C(CCC3(C)O2)C1(C)C (stereo not shown) [CBLA, cannabicyclolic acid] : 2

###

target: HCRTR2 (Homo sapiens, UniProt O43614); assay: PathHunter β-Arrestin GPCR agonist assay, HCRTR2; assay type: cell-based; parameters: concentration or dose not given beside the values; details: agonist mode; Orexin A as control
Assay metric: HCRTR2 (Agonist) percent activity (%)
Field format: number, assumed %, no unit text.

Answered cases to consult:
{"Compound": "CCCCCc1cc(O)c2c(c1)OC1(C)CCC3C1C2C3(C)C (stereo not drawn)", "Target desc": "HCRTR2 (Homo sapiens, UniProt O43614)", "Display unit": "%", "Numeric value": 5}
{"Compound": "CCCCCc1cc(O)c2c(c1)OC(C)(CCC=C(C)C)C=C2 (stereo not drawn)", "Target desc": "HCRTR2 (Homo sapiens, UniProt O43614)", "Display unit": "%", "Numeric value": 3}
{"Compound": "CCCCCc1cc2c(c(O)c1C(=O)O)C=CC(C)(CCC=C(C)C)O2 (stereo not drawn)", "Target desc": "HCRTR2 (Homo sapiens, UniProt O43614)", "Display unit": "%", "Numeric value": 1}

HCRTR2 (Agonist) percent activity reading for `CCCCc1cc(O)c(C/C=C(\C)CCC=C(C)C)c(O)c1C(=O)O` : 1

HCRTR2 (Agonist) percent activity reading for `CCCCCc1cc(O)c(C/C=C(\C)CCC=C(C)C)c(O)c1C(=O)O` : 1

HCRTR2 (Agonist) percent activity reading for CCCCCc1cc2c(c(O)c1C(=O)O)C1C3C(CCC3(C)O2)C1(C)C (stereo not drawn) : 0

HCRTR2 (Agonist) percent activity reading for `C=C(C)[C@@H]1CCC(C)=C[C@H]1c1c(O)cc(CCC)cc1O` : 0

HCRTR2 (Agonist) percent activity reading for `C=C(C)[C@@H]1CCC(C)=C[C@H]1c1c(O)cc(CC)cc1O` : 1

HCRTR2 (Agonist) percent activity reading for CCCc1cc(O)c2c(c1)OC(C)(C)[C@@H]1CCC(C)=C[C@@H]21 [THCV, tetrahydrocannabivarin] : 6

HCRTR2 (Agonist) percent activity reading for `C=C(C)[C@@H]1CCC(C)=C[C@H]1c1c(O)cc(CCC)c(C(=O)O)c1O` : 0

###

Target: HCRTR1 (Homo sapiens, UniProt O43613)
Sequence (O43613 1-425): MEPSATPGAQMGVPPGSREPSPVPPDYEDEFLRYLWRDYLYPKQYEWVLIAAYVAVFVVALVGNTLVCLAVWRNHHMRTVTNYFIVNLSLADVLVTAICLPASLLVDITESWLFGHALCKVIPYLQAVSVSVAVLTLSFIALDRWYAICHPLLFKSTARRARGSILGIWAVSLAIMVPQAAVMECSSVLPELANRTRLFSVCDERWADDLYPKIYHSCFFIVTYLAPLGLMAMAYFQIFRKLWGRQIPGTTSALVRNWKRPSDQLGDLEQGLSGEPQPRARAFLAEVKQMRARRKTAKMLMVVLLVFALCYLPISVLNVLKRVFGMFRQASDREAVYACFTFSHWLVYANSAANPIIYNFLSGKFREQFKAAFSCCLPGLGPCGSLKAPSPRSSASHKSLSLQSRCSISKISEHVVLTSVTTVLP
Assay: PathHunter β-Arrestin GPCR agonist assay, HCRTR1
Assay type: cell-based
Set-up: concentration or dose not given beside the values
Details: agonist mode; Orexin A as control
Assay metric: HCRTR1 (Agonist) percent activity (%)
Field format: number, assumed %, no unit text.

Answered cases to consult:
{"Compound": "C=C(C)[C@@H]1CCC(C)=C[C@H]1c1c(O)cc(CCCCC)cc1O [CBD, cannabidol]", "HCRTR1 (Agonist) percent activity, %": 1}
{"Compound": "C=C(C)[C@@H]1CCC(C)=C[C@H]1c1c(O)cc(CC)cc1O [CBD-C2, cannabidol-C2]", "HCRTR1 (Agonist) percent activity, %": 2}

Kindly review the next compound as well.
HCRTR1 (Agonist) percent activity reading for CCCCCc1cc(O)c2c(c1)OC(C)(C)c1ccc(C)cc1-2 [CBN, cannabinol] : 1

###

Target: HCRTR2 (Homo sapiens)
Sequence (O43614 1-444): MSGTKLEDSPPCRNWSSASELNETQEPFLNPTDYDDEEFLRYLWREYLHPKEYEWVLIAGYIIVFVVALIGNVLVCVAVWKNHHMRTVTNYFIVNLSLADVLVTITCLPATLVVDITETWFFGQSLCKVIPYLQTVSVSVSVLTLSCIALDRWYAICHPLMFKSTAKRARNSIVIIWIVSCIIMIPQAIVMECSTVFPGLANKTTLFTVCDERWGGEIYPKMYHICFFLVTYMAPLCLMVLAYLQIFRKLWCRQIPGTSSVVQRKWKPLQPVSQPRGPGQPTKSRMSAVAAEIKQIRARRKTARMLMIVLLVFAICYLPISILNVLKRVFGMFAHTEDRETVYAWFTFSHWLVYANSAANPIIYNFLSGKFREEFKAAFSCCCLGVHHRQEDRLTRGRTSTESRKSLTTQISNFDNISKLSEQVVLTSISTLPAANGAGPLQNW
Assay: PathHunter β-Arrestin GPCR antagonist assay, HCRTR2
Assay type: cell-based
Conditions: antagonist mode; agonist challenge at EC80
Give Satisfied when the value for HCRTR2 (Antagonist) percent inhibition is at least 70%. Give Not satisfied when it is less.

{"Molecule": "CCCCCc1cc2c(c(O)c1C(=O)O)C=CC(C)(CCC=C(C)C)O2 (stereo not drawn)", "Discrete label": "Not satisfied"}
{"Molecule": "CCCCc1cc(O)c(C/C=C(\\C)CCC=C(C)C)c(O)c1C(=O)O", "Discrete label": "Not satisfied"}
{"Molecule": "CCCCCc1cc2c(c(O)c1C(=O)O)C1C3C(CCC3(C)O2)C1(C)C (stereo not drawn)", "Discrete label": "Not satisfied"}

Q: Is it the case that CCCCCc1cc(O)c2c(c1)OC(C)(CCC=C(C)C)C=C2 (stereo not drawn) has HCRTR2 (Antagonist) percent inhibition reaching or exceeding 70%?
Ans: Satisfied

Q: Is it the case that `CCCCCc1cc(O)c2c(c1)OC(C)(C)c1ccc(C)cc1-2` has HCRTR2 (Antagonist) percent inhibition reaching or exceeding 70%?
Ans: Satisfied

Just for reference, patent US20220401407A1 is where these values come from.
